system: Akt phosphorylated at Ser473 in PC-3 cells; experiment: Cellular assay: phosphorylation of Akt at Ser473 in PC-3 cells (MSD ELISA); assay type: cell-based; conditions: PC-3 cells, 60 min compound incubation, MSD ELISA; read-out: IC50 pAkt_S473
As shown below, each of these molecules has a reported IC50 value.
Respond numerically; units are nM and should not be typed.

                                   molecule                                 tested_on  parameter  observed_measurement
0  OC(CN1CCC1)c1cc(C2CCCN2c2cc(F)cc(F)c2)c2nc(N3CCOCC3)cnc2c1 (single isomer, unassigned) [Compound 94]  Akt phosphorylated at Ser473 in PC-3 cells       IC50                     8

Next item in the queue.
For the molecule CC(C)NCCNC(=O)c1cc(C(C)Nc2cccc(F)c2)c2nc(N3CCOCC3)cnc2c1 (single isomer, unassigned) [Compound 227] , what IC50 is on record?
27

---

# kinase enzymes (Homo sapiens): pKd values follow
# Sequence (P48736 whole entry): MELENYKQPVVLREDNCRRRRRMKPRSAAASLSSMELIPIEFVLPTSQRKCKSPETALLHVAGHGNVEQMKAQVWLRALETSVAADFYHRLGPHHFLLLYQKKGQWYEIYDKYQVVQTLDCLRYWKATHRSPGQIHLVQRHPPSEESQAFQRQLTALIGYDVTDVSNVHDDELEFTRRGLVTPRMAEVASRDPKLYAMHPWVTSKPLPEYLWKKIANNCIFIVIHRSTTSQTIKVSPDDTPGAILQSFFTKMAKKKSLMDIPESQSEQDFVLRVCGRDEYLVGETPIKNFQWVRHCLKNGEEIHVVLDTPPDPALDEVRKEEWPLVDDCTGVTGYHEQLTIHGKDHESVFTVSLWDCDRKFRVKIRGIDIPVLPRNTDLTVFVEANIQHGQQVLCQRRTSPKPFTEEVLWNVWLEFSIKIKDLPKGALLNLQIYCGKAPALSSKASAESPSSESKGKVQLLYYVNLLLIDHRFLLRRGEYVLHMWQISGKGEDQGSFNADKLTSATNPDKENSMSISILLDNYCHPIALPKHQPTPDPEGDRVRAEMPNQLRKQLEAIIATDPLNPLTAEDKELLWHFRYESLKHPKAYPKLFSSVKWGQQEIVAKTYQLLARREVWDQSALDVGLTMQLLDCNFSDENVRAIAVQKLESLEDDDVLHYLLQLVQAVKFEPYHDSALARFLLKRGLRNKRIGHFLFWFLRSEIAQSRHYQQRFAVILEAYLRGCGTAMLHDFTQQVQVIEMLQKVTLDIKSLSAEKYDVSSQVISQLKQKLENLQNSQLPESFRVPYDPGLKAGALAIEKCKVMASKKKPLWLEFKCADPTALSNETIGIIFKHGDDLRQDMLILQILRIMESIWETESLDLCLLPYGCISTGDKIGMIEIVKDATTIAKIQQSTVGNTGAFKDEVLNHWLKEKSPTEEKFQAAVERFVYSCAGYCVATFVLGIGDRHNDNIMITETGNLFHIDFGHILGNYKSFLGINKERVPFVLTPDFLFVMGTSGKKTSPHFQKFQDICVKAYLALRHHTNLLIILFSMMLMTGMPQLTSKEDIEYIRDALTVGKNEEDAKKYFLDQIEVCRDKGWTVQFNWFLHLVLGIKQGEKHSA
Scale for pKd: -log10 of concentration given in mol/L; no unit attached.

Some entries whose results are on file:
>>> df
                                   compound  observed_measurement
0  CC(Nc1cc(F)cc(F)c1)c1cc(CO)cc2ncc(N3CCOCC3)nc12 (single isomer, unassigned) [Compound 154b]                  5.11
1  CC(Nc1ccc(F)c(F)c1)c1cc(C(=O)NC[C@@H](C)O)cc2ncc(N3CCOCC3)nc12 (single isomer, unassigned) [Compound 346b]                  5.56
2  CC(c1cc(CO)cc2ncc(N3CCOCC3)nc12)N(C)c1cccc(F)c1 (centres unmarked)                  5.83
3  CC(Nc1cc(F)cc(F)c1)c1cc(C(=O)NS(N)(=O)=O)cc2ncc(N3CCOCC3)nc12 (single isomer, unassigned) [Compound 243a]                  7.00
4  CC(Oc1cccc(F)c1)c1cc(C(=O)N(C)C)cc2ncc(N3CCOCC3)nc12 (centres unmarked) [Compound 68]                  4.82
5  CC(Nc1cc(F)cc(F)c1)c1cc(Br)cc2ncc(N3CCOCC3)nc12 (centres unmarked)                  4.89

If you can, please state the reported pKd value of CC(Nc1cc(F)c(F)c(F)c1)c1cc(C(=O)O)cc2ncc(N3CCOCC3)nc12 (centres unmarked) .
5.65

So what does the record say about pKd for C[C@@H](Nc1cc(F)cc(F)c1)c1cc(C(=O)NCCN(C)C)cc2ncc(N3CCOCC3)nc12 [Compound 184b] ?
5.96

# pKd lookup, item CN[C@H]1CCN(C(=O)c2cc(C(C)Oc3ccc(F)c(F)c3)c3nc(N4CCOCC4)cnc3c2)C1 (single isomer, unassigned) [Compound 370a]
5.58

For the compound shown here, COC(=O)c1cc(C(C)Nc2cc(F)cc(Cl)c2)c2nc(N3CCOCC3)cnc2c1 (centres unmarked) , give the reported pKd.
4.94

Please give the measured pKd for this compound: CNCCNC(=O)c1cc(C(C)Oc2ccc(F)c(F)c2)c2nc(N3CCOCC3)cnc2c1 (single isomer, unassigned) [Compound 344b]
4.85
